# study.system: Nonstructural protein 5A (Hepatitis C virus)
# Sequence (Q5L478 whole entry): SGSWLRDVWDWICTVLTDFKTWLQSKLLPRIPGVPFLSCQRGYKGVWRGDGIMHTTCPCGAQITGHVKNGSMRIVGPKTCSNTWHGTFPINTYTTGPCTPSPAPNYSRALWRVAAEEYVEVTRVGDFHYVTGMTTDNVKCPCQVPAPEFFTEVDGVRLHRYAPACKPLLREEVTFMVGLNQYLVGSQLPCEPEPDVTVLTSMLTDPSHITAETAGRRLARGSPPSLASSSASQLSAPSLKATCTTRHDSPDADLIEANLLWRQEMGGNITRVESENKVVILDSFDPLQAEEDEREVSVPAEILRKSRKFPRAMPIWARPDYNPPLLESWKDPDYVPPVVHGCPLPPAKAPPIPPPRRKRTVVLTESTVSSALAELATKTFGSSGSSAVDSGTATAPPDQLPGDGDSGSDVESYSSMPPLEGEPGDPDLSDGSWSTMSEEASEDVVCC
# test.description: Inhibition of Hepatitis C virus 1a NS5A
# Design: species or system Hepatitis C virus subtype 1a
measured.attribute: EC50 (nM)
One number for each entry, in nM.

CC(C)C#CCOC(=O)N[C@@H]1CCN(C(=O)N[C@@H](C(=O)N2CCC[C@H]2c2nc(-c3ccc([C@H]4CC[C@H](NC(=O)c5cnc(CO)cn5)CC4)cc3)c[nH]2)c2ccccc2)C1	0.12
O=C(N[C@@H]1CCN(C(=O)N[C@@H](C(=O)N2CCC[C@H]2c2nc(-c3ccc([C@H]4CC[C@H](NC(=O)c5cnccn5)CC4)cc3)c[nH]2)c2ccccc2)C1)OCC1CCCCC1	0.35

Request: # EC50 lookup, item `CC(C)(C)C#CCOC(=O)N[C@@H]1CCN(C(=O)N[C@@H](C(=O)N2CCC[C@H]2c2nc(-c3ccc([C@H]4CC[C@H](NC(=O)c5cnccn5)CC4)cc3)c[nH]2)c2ccccc2)C1`
Response: 0.13
